Cited source: PubChem BioAssay (NCATS)

Tested on: PAD
Assay: qHTS profiling for inhibitors of Plasmodium falciparum proliferation (AID 504749); note: nearly all actives have a fitted effect of over 60% in size
Conditions: P. falciparum in erythrocytes, SYBR Green DNA, 72 h; series mostly up to 28.7 µM
Results filed as inconclusive are left out. Calls of active or inactive are those of the source. Calls come from the whole dose curve; as a rule, active = well fitted inhibition curve with a large enough effect; inconclusive = small, poorly fitted or top-dose-only effect; inactive = flat fitted curve, though single readings scatter.
Mark one answer only. Choices: active, inactive

Solved entries:
Nc1ccc(S(=O)(=O)Nc2ncccn2)cc1 ... inactive
CN1c2cc(O)c(N=NC(N)=O)cc2CC1S(=O)(=O)O (stereo not drawn) ... inactive
COc1c(N2C[C@@H]3CCCN[C@H]3C2)c(F)cc2c(=O)c(C(=O)O)cn(C3CC3)c12 ... inactive
CCC1=C[C@@H]2CN(C1)Cc1c([nH]c3ccccc13)[C@@](C(=O)OC)(c1cc3c(cc1OC)N(C)[C@@H]1[C@@](O)(C(=O)OC)[C@H](OC(C)=O)[C@]4(CC)C=CCN5CC[C@]31[C@@H]54)C2 ... active
COC(=O)C[C@](O)(CCCC(C)(C)O)C(=O)O[C@@H]1C(OC)=C[C@]23CCCN2CCc2cc4c(cc2[C@H]13)OCO4 ... active
C[C@H]1C[C@@H]2[C@@H]([C@@H](O)C[C@@]3(C)[C@H]2CC[C@]3(O)C(=O)CO)[C@@]2(C)C=CC(=O)C=C12 ... inactive
CC=CC1=C(C(=O)O)N2C(=O)[C@H](NC(=O)[C@H](N)c3ccc(O)cc3)[C@@H]2SC1 ... inactive

Prompt: // return assay outcome for `COc1cc(C(=O)NS(=O)(=O)c2ccccc2C)ccc1Cc1cn(C)c2ccc(NC(=O)OC3CCCC3)cc12`
Response: inactive

----------
Experiment: qHTS of pediatric cancer cell lines to identify multiple opportunities for drug repurposing: Confirmatory screen for LAN-5 cells (AID 1347113); note: nearly all actives have a fitted effect of over 65% in size
Conditions: LAN-5 neuroblastoma cell viability; series mostly up to 45.9 µM
Inconclusive results are not listed. Calls of active or inactive are those of the source. Calls follow the shape of the dose curve; as a rule, active = well fitted cell-killing curve with a large enough effect; inconclusive = small, poorly fitted or top-dose-only effect, or effect the other way; inactive = no such curve, though single readings can be large or run the other way.
Mark one answer only. Choices: active, inactive

Solved entries:
CCn1nnc2c(N3CCOCC3)nc(-c3ccc(NC(=O)Nc4ccc(C(=O)N5CCN(C)CC5)cc4)cc3)nc21 ... active
CC(C)(O)c1cc2nc(-c3cnc(N)nc3)nc(N3CCOCC3)c2s1 ... active
COCCn1c2c([n+](Cc3cnccn3)c1C)C(=O)c1ccccc1C2=O ... active

Could you now consider this next compound?
Prompt: // return assay outcome for `CN(c1ncccc1CNc1nc(Nc2ccc3c(c2)CC(=O)N3)ncc1C(F)(F)F)S(C)(=O)=O`
Response: active

----------
Assay: Quantitative High-Throughput drug screen in 47 multiple myeloma cell lines against the NCATS MIPE library collection: OPM1_PLB cell viability assay (AID 1918989); note: nearly all actives have a fitted effect of over 40% in size
Details: CellTiter-Glo, 48 h; series mostly up to 45.8 µM
Records with an inconclusive call do not appear. Active and inactive are the calls of the source. Calls come from the whole dose curve; as a rule, active = well fitted cell-killing curve with a large enough effect; inconclusive = small, poorly fitted or top-dose-only effect, or effect the other way; inactive = no such curve, though single readings can be large or run the other way.
Mark one answer only. Choices: 1 = active, -1 = inactive

C=CC(=O)Nc1cccc(Oc2nc(Nc3ccc(N4CCN(C)CC4)cc3)ncc2Cl)c1 ... 1
Cc1cn2c(-c3cn[nH]c3)cnc2c(Nc2ccc(C(=O)N3CCNCC3)cc2F)n1 ... 1
CN(c1ncccc1CNc1nc(Nc2ccc3c(c2)CC(=O)N3)ncc1C(F)(F)F)S(C)(=O)=O ... 1

Prompt: // return assay outcome for `CNC(=O)c1cc(Oc2ccc(NC(=O)Nc3cc(C(C)(C)C)nn3-c3ccc4ncccc4c3)c(F)c2)ccn1`
Response: 1

Prompt: // return assay outcome for CC1(C)CC(=O)c2c(C(F)(F)F)nn(-c3ccc(C(N)=O)c(NC4CCC(OC(=O)CN)CC4)c3)c2C1 (stereo not drawn)
Response: 1

Prompt: // return assay outcome for `NCC(=O)Nc1ccc(-n2nc(C(F)(F)F)cc2-c2ccc3c(ccc4ccccc43)c2)cc1`
Response: 1

Prompt: // return assay outcome for O=C1CCC[C@@H]2[C@H]3CCC[N+]4([O-])CCC[C@@H](CN12)[C@@H]34 (stereo partly drawn)
Response: -1

Prompt: // return assay outcome for `CC1(C)CCC(c2ccc(Cl)cc2)=C(CN2CCN(c3ccc(C(=O)NS(=O)(=O)c4ccc(N[C@H](CCN5CCOCC5)CSc5ccccc5)c(S(=O)(=O)C(F)(F)F)c4)cc3)CC2)C1`
Response: 1
